Cited source for all entries: ChEMBL document CHEMBL4138126

System: CCRF-CEM
Assay: Growth inhibition of human CCRF-CEM cells assessed as cell growth at 10 uM after 48 hrs by sulforhodamine B assay
Type: functional
Settings: read-out: Activity
property label: growth at 10 µM (%)
Write the answer as a number in %, unit excluded.

{"columns": ["molecule", "system name", "endpoint result"],
 "data": [
  ["COc1cccc(-n2nc(C(=O)Nc3ccccc3)nc2-c2cc(OC)c(OC)c(OC)c2)c1", "CCRF-CEM", 105]
]}

Q. Provide the documented growth at 10 µM with CCRF-CEM as the system for `CCOc1ccc(-n2nc(C(=O)Nc3cc(OC)c(OC)c(OC)c3)nc2-c2cc(OC)c(OC)c(OC)c2)cc1`
A. 66.5

Q. Provide the documented growth at 10 µM with CCRF-CEM as the system for `CCOc1ccc(-n2nc(C(=O)NCc3cccc(OC)c3)nc2-c2cc(OC)c(OC)c(OC)c2)cc1`
A. 94.2

Q. Provide the documented growth at 10 µM with CCRF-CEM as the system for `CCOc1ccc(-n2nc(C(=O)Nc3cccc(OC)c3)nc2-c2cc(OC)c(OC)c(OC)c2)cc1`
A. 51.9

Q. Provide the documented growth at 10 µM with CCRF-CEM as the system for `CCOc1ccc(-n2nc(C(=O)Nc3ccccc3OC)nc2-c2cc(OC)c(OC)c(OC)c2)cc1`
A. 94

Q. Provide the documented growth at 10 µM with CCRF-CEM as the system for `COc1cccc(-n2nc(C(=O)NCc3ccccc3OC)nc2-c2cc(OC)c(OC)c(OC)c2)c1`
A. 107

Q. Provide the documented growth at 10 µM with CCRF-CEM as the system for `CCOc1ccc(-n2nc(C(=O)Nc3ccc(OC)c(O)c3)nc2-c2cc(OC)c(OC)c(OC)c2)cc1`
A. 89.5

Q. Provide the documented growth at 10 µM with CCRF-CEM as the system for `CCOc1ccc(-n2nc(C(=O)NCc3ccccc3OC)nc2-c2cc(OC)c(OC)c(OC)c2)cc1`
A. 39.7

Q. Provide the documented growth at 10 µM with CCRF-CEM as the system for `CCOc1ccc(-n2nc(C(=O)NCc3cc(F)cc(F)c3)nc2-c2cc(OC)c(OC)c(OC)c2)cc1`
A. 85.6

Q. Provide the documented growth at 10 µM with CCRF-CEM as the system for `CCOc1ccc(-n2nc(C(=O)Nc3cc(F)cc(F)c3)nc2-c2cc(OC)c(OC)c(OC)c2)cc1`
A. 84.1

Q. Provide the documented growth at 10 µM with CCRF-CEM as the system for `CCOc1ccc(-n2nc(C(=O)Nc3ccc(F)c(F)c3)nc2-c2cc(OC)c(OC)c(OC)c2)cc1`
A. 44.1

Q. Provide the documented growth at 10 µM with CCRF-CEM as the system for `COc1cccc(-n2nc(C(=O)NCc3ccccc3C)nc2-c2cc(OC)c(OC)c(OC)c2)c1`
A. 104

Q. Provide the documented growth at 10 µM with CCRF-CEM as the system for `CCOc1ccc(-n2nc(C(=O)Nc3ccccc3)nc2-c2cc(OC)c(OC)c(OC)c2)cc1`
A. 50.8

* * *

Test system: SK-OV-3
Assay: Growth inhibition of human SKOV3 cells assessed as cell growth at 10 uM after 48 hrs by sulforhodamine B assay
Format: functional
Details: SK-OV-3, 48 h, read-out: Activity
Documented growth at 10 µM across a set of compounds

Q. Suppose we examine the compound `COc1cccc(-n2nc(C(=O)NCc3ccccc3OC)nc2-c2cc(OC)c(OC)c(OC)c2)c1` ; what growth at 10 µM value has been reported?
A. 96.7%

Q. Suppose we examine the compound `COc1cccc(-n2nc(C(=O)NCc3ccccc3C)nc2-c2cc(OC)c(OC)c(OC)c2)c1` ; what growth at 10 µM value has been reported?
A. 87.7%

Q. Suppose we examine the compound `COc1cccc(-n2nc(C(=O)Nc3ccccc3)nc2-c2cc(OC)c(OC)c(OC)c2)c1` ; what growth at 10 µM value has been reported?
A. 102%

Q. Suppose we examine the compound `CCOc1ccc(-n2nc(C(=O)Nc3cccc(OC)c3)nc2-c2cc(OC)c(OC)c(OC)c2)cc1` ; what growth at 10 µM value has been reported?
A. 96.5%

Q. Suppose we examine the compound `CCOc1ccc(-n2nc(C(=O)Nc3ccccc3OC)nc2-c2cc(OC)c(OC)c(OC)c2)cc1` ; what growth at 10 µM value has been reported?
A. 88.8%
